# Test system: 817829-284-R-J1-PDC complex spheroids, viability;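 note: spheroids exposed to agents for 7 days before readout; percent viability relative to DMSO vehicle control taken as 100%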
# protocolDetails: Anticancer human tumor 817829-284-R-J1-PDC patient-derived colon adenocarcinoma cell line growth inhibition [GQUAD]
# testSettings: second compound 0.1 µM; first compound 0.1 µM; hits give low values
# From the text: DNA G-quadruplex Stabilizer Agents in Combinations in Complex Spheroids A high-throughput screen of multi-cell type tumor spheroids was designed to identify active combinations of DNA G-quadruplex stabilizer agents and targeted small molecules. […] Compounds. […] If the clinical Cmax for an agent had not been determined, the highest concentration tested was 10 microM. […]
readoutLabel: viability, T/C (%)
All answers are understood in %, so give the number only.

Check out these entries, answers already filled in.
compound	studySystem	displayUnit	viability, T/C
O=C(NO)c1cnc(N2CCN(S(=O)(=O)c3ccc4ccccc4c3)CC2)nc1 + Cc1[nH]c2ccc(F)cc2c1-c1nc2c3cccnc3c3ncccc3c2[nH]1	817829-284-R-J1-PDC complex spheroids, viability	%	120
COc1cc(C2c3cc4c(cc3C(OC3OC5COC(C)OC5C(O)C3O)C3COC(=O)C23)OCO4)cc(OC)c1O (stereo unspecified) + Cc1[nH]c2ccc(F)cc2c1-c1nc2c3cccnc3c3ncccc3c2[nH]1	817829-284-R-J1-PDC complex spheroids, viability	%	91.2
Nc1ccn(C2OC(CO)C(O)C2(F)F)c(=O)n1 (stereo unspecified) + Cc1[nH]c2ccc(F)cc2c1-c1nc2c3cccnc3c3ncccc3c2[nH]1	817829-284-R-J1-PDC complex spheroids, viability	%	8.53
Cc1cccc(N(C)C(=O)C2C(O)CCN2c2nc(C)cc(C(F)(F)F)c2C#N)c1 (stereo unspecified) + Cc1cnc(CNC(=O)c2c(=O)c3ccc(N4CCCN(C)CC4)nc3n3c2sc2ccccc23)cn1	817829-284-R-J1-PDC complex spheroids, viability	%	36.7
C#Cc1c(F)ccc2cc(O)cc(-c3ncc4c(N5CC6CCC(C5)N6)nc(OCC56CCCN5CC(F)C6)nc4c3F)c12 (stereo unspecified) + CN(C)c1ccc(Nc2c3ccc(NC(=O)CCN4CCCC4)cc3nc3cc(NC(=O)CCN4CCCC4)ccc23)cc1	817829-284-R-J1-PDC complex spheroids, viability	%	106

Give viability, T/C only, for COc1cccc2c1C(=O)c1c(O)c3c(c(O)c1C2=O)CC(O)(C(=O)CO)CC3OC1CC(N)C(O)C(C)O1 (stereo unspecified) + Cc1[nH]c2ccc(F)cc2c1-c1nc2c3cccnc3c3ncccc3c2[nH]1 , using 817829-284-R-J1-PDC complex spheroids, viability data.
46.1

Give viability, T/C only, for Nc1ccn(C2OC(CO)C(O)C2(F)F)c(=O)n1 (stereo unspecified) + CN(C)c1ccc(Nc2c3ccc(NC(=O)CCN4CCCC4)cc3nc3cc(NC(=O)CCN4CCCC4)ccc23)cc1 , using 817829-284-R-J1-PDC complex spheroids, viability data.
7.05

Give viability, T/C only, for O=C(c1cc(Cc2n[nH]c(=O)c3ccccc23)ccc1F)N1CCN(C(=O)C2CC2)CC1 + CN(C)c1ccc(Nc2c3ccc(NC(=O)CCN4CCCC4)cc3nc3cc(NC(=O)CCN4CCCC4)ccc23)cc1 , using 817829-284-R-J1-PDC complex spheroids, viability data.
107

Give viability, T/C only, for CC(C)(O)C1CCC(Nc2ccc3ncc(-c4cccc(C(F)(F)F)c4)n3n2)CC1 (stereo unspecified) + CN(C)c1ccc(Nc2c3ccc(NC(=O)CCN4CCCC4)cc3nc3cc(NC(=O)CCN4CCCC4)ccc23)cc1 , using 817829-284-R-J1-PDC complex spheroids, viability data.
101

Give viability, T/C only, for C#Cc1c(F)ccc2cc(O)cc(-c3ncc4c(N5CC6CCC(C5)N6)nc(OCC56CCCN5CC(F)C6)nc4c3F)c12 (stereo unspecified) + Cc1cnc(CNC(=O)c2c(=O)c3ccc(N4CCCN(C)CC4)nc3n3c2sc2ccccc23)cn1 , using 817829-284-R-J1-PDC complex spheroids, viability data.
35.5

Give viability, T/C only, for COc1cccc2c1C(=O)c1c(O)c3c(c(O)c1C2=O)CC(O)(C(=O)CO)CC3OC1CC(N)C(O)C(C)O1 (stereo unspecified) + CN(C)c1ccc(Nc2c3ccc(NC(=O)CCN4CCCC4)cc3nc3cc(NC(=O)CCN4CCCC4)ccc23)cc1 , using 817829-284-R-J1-PDC complex spheroids, viability data.
43.4
